Source: ChEMBL document CHEMBL1667795

# assay.info: Inhibition of chymotrypsin at 2.5 uM after 30 mins relative to control
Activity calls are given as the source filed them. No cut-off for these calls is given here.
outcome.measure: inhibition

INSERT INTO measurements (sample_smiles, outcome_measure, measured_result) VALUES
  ('CSCC[C@H](NC(=O)OCc1ccccc1)C(=O)O[C@H](C(=O)N[C@H](C(C)C)P(=O)(Oc1ccc(SC)cc1)Oc1ccc(SC)cc1)c1ccc(F)cc1', 'inhibition', 'inactive'),
  ('CSCC[C@H](NC(=O)OCc1ccccc1)C(=O)O[C@@H](Cc1ccccc1)C(=O)N[C@H](C(C)C)P(=O)(Oc1ccc(SC)cc1)Oc1ccc(SC)cc1', 'inhibition', 'inactive'),
  ('CCCCCC(=O)N1CCN([C@H](C(=O)N[C@H](C(C)C)P(=O)(Oc2ccc(SC)cc2)Oc2ccc(SC)cc2)c2ccc(F)cc2)CC1', 'inhibition', 'inactive'),
  ('CSCC[C@H](NC(=O)OCc1ccccc1)C(=O)O[C@@H](CCc1ccccc1)C(=O)N[C@H](C(C)C)P(=O)(Oc1ccc(Cl)cc1)Oc1ccc(Cl)cc1', 'inhibition', 'inactive'),
  ('COc1ccc([C@H](OC(=O)[C@H](CCSC)NC(=O)OCc2ccccc2)C(=O)N[C@H](C(C)C)P(=O)(Oc2ccc(Cl)cc2)Oc2ccc(Cl)cc2)cc1OC', 'inhibition', '21%');

* * *

# study.target: Neutrophil elastase (Homo sapiens) (UniProt P08246)
# assay.info: Inhibition of human neutrophil elastase after 15 mins
Readings of log10(kinact/Ki (second-order inactivation rate constant)) for the listed compounds
outcome.measure: log10(kinact/Ki (second-order inactivation rate constant)) (log10 of the value in M⁻¹ s⁻¹)

INSERT INTO assay_data (sample_smiles, measured_result) VALUES
  ('CCCCN(C(=O)CNC(=O)OCc1ccccc1)[C@@H](Cc1ccccc1)C(=O)N[C@H](C(C)C)P(=O)(Oc1ccc(SC)cc1)Oc1ccc(SC)cc1', 3.13),
  ('CCCCCC(=O)N1CCN([C@H](C(=O)N[C@H](C(C)C)P(=O)(Oc2ccc(SC)cc2)Oc2ccc(SC)cc2)c2ccc([N+](=O)[O-])cc2)CC1', 2.15),
  ('CSCC[C@H](NC(=O)OCc1ccccc1)C(=O)O[C@@H](Cc1ccccc1)C(=O)N[C@H](C(C)C)P(=O)(Oc1ccc(SC)cc1)Oc1ccc(SC)cc1', 2.78),
  ('CSCC[C@H](NC(=O)OCc1ccccc1)C(=O)O[C@@H](CCSC)C(=O)N[C@H](C(C)C)P(=O)(Oc1ccc(SC)cc1)Oc1ccc(SC)cc1', 3.77),
  ('CSCC[C@H](NC(=O)OCc1ccccc1)C(=O)O[C@H](C(=O)N[C@H](C(C)C)P(=O)(Oc1ccc(SC)cc1)Oc1ccc(SC)cc1)c1ccc(F)cc1', 3.69);

* * *

# assay.info: Inhibition of chymotrypsin at 2.5 uM after 30 mins relative to control
Active and inactive are the calls of the source. The calls are words filed in the database; no cut-off is given here.
outcome.measure: inhibition

INSERT INTO assay_data (sample_smiles, outcome_measure, measured_result) VALUES
  ('CSCC[C@H](NC(=O)OCc1ccccc1)C(=O)O[C@@H](CCSC)C(=O)N[C@H](C(C)C)P(=O)(Oc1ccc(Cl)cc1)Oc1ccc(Cl)cc1', 'inhibition', 'inactive'),
  ('CSCC[C@H](NC(=O)OCc1ccccc1)C(=O)O[C@H](C(=O)N[C@H](C(C)C)P(=O)(Oc1ccc(SC)cc1)Oc1ccc(SC)cc1)C(C)C', 'inhibition', '15%'),
  ('CSCC[C@H](NC(=O)OCc1ccccc1)C(=O)O[C@@H](CCc1ccccc1)C(=O)N[C@H](C(C)C)P(=O)(Oc1ccc(SC)cc1)Oc1ccc(SC)cc1', 'inhibition', 'inactive'),
  ('CCCCN(C(=O)CNC(=O)OCc1ccccc1)[C@H](C(=O)N[C@H](C(C)C)P(=O)(Oc1ccc(SC)cc1)Oc1ccc(SC)cc1)C(C)C', 'inhibition', '8%'),
  ('CCCCCC(=O)N1CCN([C@H](C(=O)N[C@H](C(C)C)P(=O)(Oc2ccc(SC)cc2)Oc2ccc(SC)cc2)c2ccc([N+](=O)[O-])cc2)CC1', 'inhibition', 'inactive'),
  ('CSCC[C@H](NC(=O)OCc1ccccc1)C(=O)O[C@@H](CC(C)C)C(=O)N[C@H](C(C)C)P(=O)(Oc1ccc(Cl)cc1)Oc1ccc(Cl)cc1', 'inhibition', 'inactive');

* * *

# assay.info: Inhibition of trypsin at 2.5 uM after 30 mins relative to control
Activity calls are given as the source filed them. The calls are words filed in the database; no cut-off is given here.
outcome.measure: inhibition

INSERT INTO measurements (sample_smiles, measured_result) VALUES
  ('CCCCN(C(=O)CNC(=O)OCc1ccccc1)[C@@H](CCc1ccccc1)C(=O)N[C@H](C(C)C)P(=O)(Oc1ccc(SC)cc1)Oc1ccc(SC)cc1', 'inactive'),
  ('CSCC[C@H](NC(=O)OCc1ccccc1)C(=O)O[C@@H](Cc1ccccc1)C(=O)N[C@H](C(C)C)P(=O)(Oc1ccc(Cl)cc1)Oc1ccc(Cl)cc1', 'inactive'),
  ('CSCC[C@H](NC(=O)OCc1ccccc1)C(=O)O[C@@H](CCSC)C(=O)N[C@H](C(C)C)P(=O)(Oc1ccc(Cl)cc1)Oc1ccc(Cl)cc1', 'inactive');

* * *

# assay.info: Inhibition of trypsin at 2.5 uM after 30 mins relative to control
The source made the active and inactive calls. The calls are words filed in the database; no cut-off is given here.
outcome.measure: inhibition

INSERT INTO measurements (sample_smiles, outcome_measure, measured_result) VALUES
  ('CSCC[C@H](NC(=O)OCc1ccccc1)C(=O)O[C@H](C(=O)N[C@H](C(C)C)P(=O)(Oc1ccc(Cl)cc1)Oc1ccc(Cl)cc1)c1ccc(F)cc1', 'inhibition', 'inactive'),
  ('CCCCCC(=O)N1CCN([C@@H](CCSC)C(=O)N[C@H](C(C)C)P(=O)(Oc2ccc(SC)cc2)Oc2ccc(SC)cc2)CC1', 'inhibition', 'inactive'),
  ('COc1ccc([C@H](OC(=O)[C@H](CCSC)NC(=O)OCc2ccccc2)C(=O)N[C@H](C(C)C)P(=O)(Oc2ccc(Cl)cc2)Oc2ccc(Cl)cc2)cc1OC', 'inhibition', 'inactive');

* * *

# study.target: Neutrophil elastase (Homo sapiens)
# Sequence (whole entry): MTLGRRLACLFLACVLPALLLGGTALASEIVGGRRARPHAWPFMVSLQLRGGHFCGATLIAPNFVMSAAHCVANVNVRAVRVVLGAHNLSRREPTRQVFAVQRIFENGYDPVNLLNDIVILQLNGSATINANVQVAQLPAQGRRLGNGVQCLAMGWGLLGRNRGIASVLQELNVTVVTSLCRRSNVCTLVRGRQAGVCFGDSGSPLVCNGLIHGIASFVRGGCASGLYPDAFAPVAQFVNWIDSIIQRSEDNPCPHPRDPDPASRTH
# assay.info: Inhibition of human neutrophil elastase after 15 mins
Values of kinact/Ki (second-order inactivation rate constant) greater than or equal to 500 M⁻¹ s⁻¹ map to T; values below map to F.

INSERT INTO results (sample_smiles, category) VALUES
  ('CCCCCC(=O)N1CCN([C@@H](CCSC)C(=O)N[C@H](C(C)C)P(=O)(Oc2ccc(SC)cc2)Oc2ccc(SC)cc2)CC1', 'F'),
  ('CCCCN(C(=O)CNC(=O)OCc1ccccc1)[C@@H](CCc1ccccc1)C(=O)N[C@H](C(C)C)P(=O)(Oc1ccc(SC)cc1)Oc1ccc(SC)cc1', 'T'),
  ('CCCCCC(=O)N1CCN([C@H](C(=O)N[C@H](C(C)C)P(=O)(Oc2ccc(SC)cc2)Oc2ccc(SC)cc2)c2ccc(F)cc2)CC1', 'F'),
  ('CSCC[C@H](NC(=O)OCc1ccccc1)C(=O)O[C@@H](CC(C)C)C(=O)N[C@H](C(C)C)P(=O)(Oc1ccc(Cl)cc1)Oc1ccc(Cl)cc1', 'T'),
  ('COc1ccc([C@H](OC(=O)[C@H](CCSC)NC(=O)OCc2ccccc2)C(=O)N[C@H](C(C)C)P(=O)(Oc2ccc(SC)cc2)Oc2ccc(SC)cc2)cc1OC', 'T'),
  ('CSCC[C@H](NC(=O)OCc1ccccc1)C(=O)O[C@@H](CCc1ccccc1)C(=O)N[C@H](C(C)C)P(=O)(Oc1ccc(Cl)cc1)Oc1ccc(Cl)cc1', 'T'),
  ('CCCCN(C(=O)CNC(=O)OCc1ccccc1)[C@@H](CC(C)C)C(=O)N[C@H](C(C)C)P(=O)(Oc1ccc(SC)cc1)Oc1ccc(SC)cc1', 'F'),
  ('COc1ccc([C@H](OC(=O)[C@H](CCSC)NC(=O)OCc2ccccc2)C(=O)N[C@H](C(C)C)P(=O)(Oc2ccc(Cl)cc2)Oc2ccc(Cl)cc2)cc1OC', 'F'),
  ('CSCC[C@H](NC(=O)OCc1ccccc1)C(=O)O[C@@H](Cc1ccccc1)C(=O)N[C@H](C(C)C)P(=O)(Oc1ccc(Cl)cc1)Oc1ccc(Cl)cc1', 'T'),
  ('CSCC[C@H](NC(=O)OCc1ccccc1)C(=O)O[C@H](C(=O)N[C@H](C(C)C)P(=O)(Oc1ccc(Cl)cc1)Oc1ccc(Cl)cc1)c1ccc(F)cc1', 'F'),
  ('CSCC[C@H](NC(=O)OCc1ccccc1)C(=O)O[C@@H](CCc1ccccc1)C(=O)N[C@H](C(C)C)P(=O)(Oc1ccc(SC)cc1)Oc1ccc(SC)cc1', 'T'),
  ('CSCC[C@H](NC(=O)OCc1ccccc1)C(=O)O[C@H](C(=O)N[C@H](C(C)C)P(=O)(Oc1ccc(SC)cc1)Oc1ccc(SC)cc1)C(C)C', 'T');
